- target_under_test: Env of HIV-1 SF162 on pseudovirus (HIV-1 strain SF162)
Assign IC50 of neutralisation of SF162 pseudovirus, TZM-bl cells (luciferase) to each entry below.
Numbers only, in µM.

binder: Fv 447–52D Trp^L96Ala (other, human) VH: EVQLVESGGGLVKPGGSLRLTCVASGFTFSDVWLNWVRQAPGKGLEWVGRIKSRTDGGTTDYAASVKGRFTISRDDSKNTLYLQMNSLKTEDTAVYSCTTDGFIMIRGVSEDYYYYYMDVWGKGTTVTVSS VL: QSVLTQPPSVSAAPGQKVTISCSGSSSNIGNNYVLWYQQFPGTAPKLLIYGNNKRPSGIPDRFSGSKSGTSATLGITGLQTGDEADYFCATWDSGLSADAVFGGGTKLTVL
unit_string: µM
number: 50
--
binder: Fv 447–52D Tyr^H100JThr (other, human) VH: EVQLVESGGGLVKPGGSLRLTCVASGFTFSDVWLNWVRQAPGKGLEWVGRIKSRTDGGTTDYAASVKGRFTISRDDSKNTLYLQMNSLKTEDTAVYSCTTDGFIMIRGVSEDYYYTYMDVWGKGTTVTVSS VL: QSVLTQPPSVSAAPGQKVTISCSGSSSNIGNNYVLWYQQFPGTAPKLLIYGNNKRPSGIPDRFSGSKSGTSATLGITGLQTGDEADYFCATWDSGLSADWVFGGGTKLTVL
unit_string: µM
number: 23

Shift focus to the following entry.
Summary for this binder, Fv 447–52D Asp^H95Asn (other, human) VH: EVQLVESGGGLVKPGGSLRLTCVASGFTFSDVWLNWVRQAPGKGLEWVGRIKSRTDGGTTDYAASVKGRFTISRDDSKNTLYLQMNSLKTEDTAVYSCTTNGFIMIRGVSEDYYYYYMDVWGKGTTVTVSS VL: QSVLTQPPSVSAAPGQKVTISCSGSSSNIGNNYVLWYQQFPGTAPKLLIYGNNKRPSGIPDRFSGSKSGTSATLGITGLQTGDEADYFCATWDSGLSADWVFGGGTKLTVL : IC50 of neutralisation of SF162 pseudovirus, TZM-bl cells (luciferase) is 41
